# MEASURED TARGET: rat mGluR5 (Rattus norvegicus, UniProt P31424)
# Sequence (P31424 21-1203): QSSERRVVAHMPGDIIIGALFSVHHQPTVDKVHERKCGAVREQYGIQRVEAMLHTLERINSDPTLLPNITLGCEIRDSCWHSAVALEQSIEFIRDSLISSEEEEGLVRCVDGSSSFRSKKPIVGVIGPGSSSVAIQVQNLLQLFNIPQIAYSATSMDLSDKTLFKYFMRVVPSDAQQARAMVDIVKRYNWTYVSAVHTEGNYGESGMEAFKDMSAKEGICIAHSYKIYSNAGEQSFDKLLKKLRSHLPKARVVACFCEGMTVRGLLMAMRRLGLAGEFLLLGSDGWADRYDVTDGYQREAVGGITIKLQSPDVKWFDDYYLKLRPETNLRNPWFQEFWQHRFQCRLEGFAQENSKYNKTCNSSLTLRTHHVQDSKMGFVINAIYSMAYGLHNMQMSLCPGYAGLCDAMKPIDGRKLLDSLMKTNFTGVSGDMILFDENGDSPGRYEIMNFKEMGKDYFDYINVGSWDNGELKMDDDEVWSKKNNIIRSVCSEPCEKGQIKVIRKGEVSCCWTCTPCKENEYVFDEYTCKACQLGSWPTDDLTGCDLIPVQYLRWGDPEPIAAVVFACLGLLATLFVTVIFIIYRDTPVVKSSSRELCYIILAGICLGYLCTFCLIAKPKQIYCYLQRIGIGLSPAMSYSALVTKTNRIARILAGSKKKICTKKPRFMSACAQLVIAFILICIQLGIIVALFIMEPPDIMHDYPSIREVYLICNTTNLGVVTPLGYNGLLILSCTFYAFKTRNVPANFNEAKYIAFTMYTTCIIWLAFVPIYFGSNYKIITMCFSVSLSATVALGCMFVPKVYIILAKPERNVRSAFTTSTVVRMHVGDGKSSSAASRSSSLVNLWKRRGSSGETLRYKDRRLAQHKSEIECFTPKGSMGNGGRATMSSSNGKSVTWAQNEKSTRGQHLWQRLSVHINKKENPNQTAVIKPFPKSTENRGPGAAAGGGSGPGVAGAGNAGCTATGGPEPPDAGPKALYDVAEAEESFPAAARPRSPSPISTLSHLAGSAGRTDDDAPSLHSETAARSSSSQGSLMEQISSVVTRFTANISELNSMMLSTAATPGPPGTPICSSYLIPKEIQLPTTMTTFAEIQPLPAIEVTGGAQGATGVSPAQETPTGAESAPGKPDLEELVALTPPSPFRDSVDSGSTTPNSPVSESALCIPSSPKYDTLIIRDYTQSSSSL
# PROCEDURE SUMMARY: mGluR5 calcium flux assay in HEK 293A cells, negative allosteric modulation of glutamate EC80 response
# STUDY CONDITIONS: HEK cells transfected with rat mGluR5; glutamate EC80; ± is standard error of at least three experiments
pIC50: −log10 of the molar value.
This section presents molecules with their documented pIC50 values.

MOLECULE	RESULT QUALIFIER	pIC50
Cc1cc(O[C@H]2CCCOC2)cc(C(=O)Nc2ccccn2)n1	=	7.12
Cc1cc(OC2CN(C(=O)N(C)C)C2)cc(C(=O)Nc2nc(C)cs2)n1	<	5.00
Cc1cc(OCC2CCOCC2)cc(C(=O)Nc2ccc(F)cn2)n1	=	5.24
Cc1cc(O[C@@H]2CCOC2)cc(C(=O)Nc2nc(C)c(F)s2)n1	=	6.77
Cc1cc(OC2CCCC2)cc(C(=O)Nc2nc(C)cs2)n1	=	6.83
Cc1cccc(NC(=O)c2cc(OC3COC3)cc(C)n2)n1	=	7.23
Cc1cc(OC2CCCCC2)cc(C(=O)Nc2ccccn2)n1	=	5.85
Cc1cc(OC2CCCCC2)cc(C(=O)Nc2nc(C)cs2)n1	=	5.68
Cc1cc(O[C@H]2CCOC2)cc(C(=O)Nc2nc(C)cs2)n1	=	6.88
CCC(=O)N1CC(Oc2cc(C)nc(C(=O)Nc3ccc(F)cn3)c2)C1	=	5.47
Cc1cc(OC2CN(C(=O)CC(C)C)C2)cc(C(=O)Nc2nc(C)cs2)n1	=	5.78
Cc1cc(OC2CN(S(C)(=O)=O)C2)cc(C(=O)Nc2nc(C)cs2)n1	=	6.30
CCS(=O)(=O)N1CC(Oc2cc(C)nc(C(=O)Nc3nc(C)cs3)c2)C1	=	5.90
CCOC(=O)N1CC(Oc2cc(C)nc(C(=O)Nc3ccc(F)cn3)c2)C1	=	5.48
Cc1cc(OC2CCCOC2)cc(C(=O)Nc2nc(C)cs2)n1 (stereo not shown)	=	6.85
Cc1cc(OC2CC3(COC3)C2)cc(C(=O)Nc2ccccn2)n1	=	5.77
Cc1cc(OC2CCC2)cc(C(=O)Nc2ccc(F)cn2)n1	=	6.74
Cc1cc(OCC2CCO2)cc(C(=O)Nc2ccccn2)n1 (stereo not shown)	=	6.19
Cc1cc(O[C@H]2CO[C@H](C)C2)cc(C(=O)Nc2nc(C3CC3)cs2)n1	=	6.05
Cc1cc(OC2CN(S(=O)(=O)C(C)C)C2)cc(C(=O)Nc2nc(C)cs2)n1	=	5.44
Cc1cc(OC2CCS(=O)(=O)C2)cc(C(=O)Nc2ccc(F)cn2)n1 (stereo not shown)	=	6.20
Cc1cc(OC2CN(S(C)(=O)=O)C2)cc(C(=O)Nc2ccc(F)cn2)n1	=	5.88

====

# MEASURED TARGET: UniProt:P31424
# PROCEDURE SUMMARY: mGluR5 calcium flux assay in HEK 293A cells, negative allosteric modulation of glutamate EC80 response
# STUDY CONDITIONS: HEK cells transfected with rat mGluR5; glutamate EC80; ± is standard error of at least three experiments
pIC50: −log10 of the molar value.
REPORTED PROPERTY: pIC50

COMPOUND	REPORTED PROPERTY	RESULT QUALIFIER	RECORDED MEASUREMENT
COC(=O)N1CC(Oc2cc(C)nc(C(=O)Nc3nc(C)cs3)c2)C1	pIC50	=	6.16
COCCOc1cc(C)nc(C(=O)Nc2nc(C)cs2)c1	pIC50	=	7.09
Cc1cc(OC2CN(S(=O)(=O)C(C)C)C2)cc(C(=O)Nc2ccc(F)cn2)n1	pIC50	=	5.40
Cc1cc(OCC2CCCO2)cc(C(=O)Nc2ccccn2)n1 (centres unmarked)	pIC50	=	6.14
Cc1cc(O[C@@H]2CCCOC2)cc(C(=O)Nc2ccccn2)n1	pIC50	=	7.00
Cc1cc(O[C@@H]2CCOC2)cc(C(=O)Nc2ccccn2)n1	pIC50	=	7.64
Cc1cc(O[C@@H]2CCCOC2)cc(C(=O)Nc2nc(C)cs2)n1	pIC50	=	7.15
Cc1cc(OCC2COCCO2)cc(C(=O)Nc2nc(C)cs2)n1 (centres unmarked)	pIC50	=	6.21
COC[C@@H](C)Oc1cc(C)nc(C(=O)Nc2ccccn2)c1	pIC50	=	5.67
CCOC(=O)N1CC(Oc2cc(C)nc(C(=O)Nc3nc(C)cs3)c2)C1	pIC50	=	6.06
Cc1cc(OC2CSC2)cc(C(=O)Nc2ccc(F)cn2)n1	pIC50	=	7.43
Cc1cc(O[C@H]2CO[C@H](C)C2)cc(C(=O)Nc2nc(C(F)(F)F)cs2)n1	pIC50	=	5.28
Cc1cc(OC2CN(C(=O)N(C)C)C2)cc(C(=O)Nc2ccc(F)cn2)n1	pIC50	<	5.00
CCOCCOc1cc(C)nc(C(=O)Nc2nc(C)cs2)c1	pIC50	=	6.44
Cc1cc(O[C@@H]2CCOC2)cc(C(=O)Nc2nc(C(F)(F)F)cs2)n1	pIC50	=	5.69
Cc1cc(O[C@H]2CCOC2)cc(C(=O)Nc2ccccn2)n1	pIC50	=	6.71
COCCOCCOc1cc(C)nc(C(=O)Nc2ccc(F)cn2)c1	pIC50	=	5.16
Cc1cc(OC2COC2)cc(C(=O)Nc2cccc(F)n2)n1	pIC50	=	6.70
Cc1cc(O[C@H]2CCCOC2)cc(C(=O)Nc2nc(C)cs2)n1	pIC50	=	7.04
Cc1cc(O[C@H]2CO[C@@H](C)C2)cc(C(=O)Nc2ccc(F)cn2)n1	pIC50	=	5.35
Cc1cc(O[C@H]2CO[C@@H](C)C2)cc(C(=O)Nc2nc(C)cs2)n1	pIC50	=	6.16
Cc1cc(OC2C[S+]([O-])C2)cc(C(=O)Nc2nc(C)cs2)n1 (centres unmarked)	pIC50	=	6.74
Cc1cc(O[C@H]2CO[C@H](C)C2)cc(C(=O)Nc2ccc(F)cn2)n1	pIC50	=	6.76
